Where these numbers come from: patent US7053189B2

Answer each item with its documented Ki.
Experimental System: D2 in pig anterior pituitary homogenates (Sus scrofa)
Sequence (A0ACM8QMZ9 1-443): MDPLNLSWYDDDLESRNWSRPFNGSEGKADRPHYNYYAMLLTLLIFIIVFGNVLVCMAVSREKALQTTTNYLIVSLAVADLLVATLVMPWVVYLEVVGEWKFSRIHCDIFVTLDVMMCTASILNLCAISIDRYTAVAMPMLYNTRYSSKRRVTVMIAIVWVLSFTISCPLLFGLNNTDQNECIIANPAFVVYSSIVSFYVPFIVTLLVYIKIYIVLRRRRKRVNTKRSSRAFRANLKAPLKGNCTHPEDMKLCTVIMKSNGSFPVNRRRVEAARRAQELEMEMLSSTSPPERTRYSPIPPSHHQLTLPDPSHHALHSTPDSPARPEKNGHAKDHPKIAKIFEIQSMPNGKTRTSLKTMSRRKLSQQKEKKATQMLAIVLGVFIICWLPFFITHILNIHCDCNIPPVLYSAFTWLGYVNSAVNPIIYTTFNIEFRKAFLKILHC
Type: binding
Assay Setup: T = Ki in pig anterior pituitary homogenates; no unit in table; read-out: D2Ki
Give bare numbers, in nM.

INSERT INTO assay_data (molecule, experimental_system, measured) VALUES
  ('CCCN(CCc1cccs1)[C@H]1CCc2c(O)cccc2C1 [N-0437]', 'D2 in pig anterior pituitary homogenates (Sus scrofa)', 0.7),
  ('CNc1cc(OC)c(C(=O)NC2CCN(Cc3ccccc3)C2C)cc1Cl (stereo not shown) [YM-09151-2]', 'D2 in pig anterior pituitary homogenates (Sus scrofa)', 0.06),
  ('NC1CCc2cc(O)c(O)cc2C1 (racemic) [ADTN-(±)]', 'D2 in pig anterior pituitary homogenates (Sus scrofa)', 1.7),
  ('CCCN1CCC[C@@H]2Cc3n[nH]cc3C[C@H]21 [Quinpirole(−)]', 'D2 in pig anterior pituitary homogenates (Sus scrofa)', 4.8);

Parameters: items (list). Returns: Ki for each item.
1. CC(C)C[C@H]1C(=O)N2CCC[C@H]2[C@]2(O)O[C@](NC(=O)[C@@H]3C=C4c5cccc6[nH]cc(c56)C[C@H]4N(C)C3)(C(C)C)C(=O)N12 [Ergocriptine-S]
2. CCCN1CCO[C@@H]2c3cc(O)ccc3CC[C@H]21 [PHNO-(+)]
3. CCCN1CCc2cccc3c2[C@H]1Cc1ccc(O)c(O)c1-3 [NPA]

Response given:
[0.4, 1.2, 0.4]
